Tested on: HCC-2998 colon
Assay: NCI tumour cell line growth inhibition, 48 h
Catalogue of TGI values
readout: TGI

> print(dat)
                                    molecule  assayresult
 1  COC1=CC2(CC(OC)=C1OC)OC21COc2ccccc2C1=O (stereo not given)     > 100 µM
 2  COc1ncc(Nc2ncc([C@@H](C)N3CCN(S(C)(=O)=O)CC3)cc2-c2nc(C)nc(N)n2)cc1F     > 100 µM
 3  C[C@@H]1C(=O)C[C@H]2C(C)(C)CCC[C@]2(C)[C@@]1(O)CCc1ccoc1     > 100 µM
 4  O=C(N/N=C\c1ccc(N(CCCl)CCCl)cc1[N+](=O)[O-])c1cccnc1     > 100 µM
 5  COc1ccc(N=NC(=O)NC(CC(C)C)C(N)=O)cc1 (stereo not given)    > 31.6 µM
 6  CCOP(=O)(OCC)C1CCCOC1=O (stereo not given)     > 100 µM
 7  CCOC(=O)Oc1cc2c(c(OC)c1OC)-c1ccc(OC)c(=O)cc1C(NC(C)=O)CC2 (stereo not given)     0.683 µM
 8         OCCN(/N=C\c1ccc2ccccc2c1)C1=NCCN1      32.6 µM
 9  O=C(/C=C/c1cccc(Oc2ccccc2)c1)NCc1ccc(C(=O)NCCc2ccccc2)cc1     > 100 µM
10  COC1=CC(=O)CC(C)C12Oc1c(Cl)c(OC)cc(OC)c1C2=O (stereo not given)     > 100 µM

###

System: OVCAR-4 ovarian
Experiment: NCI tumour cell line growth inhibition, 48 h; in the data active means GI50 below about 0.43 µM; inactive means the rest
Outcome codes: active, inactive

> print(dat)
                                    compound         testedon  categorylabel
 1   CCN(CC)CCCNc1cc(OC)cc2nc3cc(Cl)ccc3nc12  OVCAR-4 ovarian       inactive
 2  CC(=O)[O-].Cn1ccnc1CNCc1nccn1C.[Cu+2].[O-][Cl+3]([O-])([O-])[O-]  OVCAR-4 ovarian       inactive
 3  CCC(C)[C@H](NC(=O)Nc1cc(C(F)(F)F)cc(C(F)(F)F)c1)C(=O)N[C@@H](Cc1cn(C)cn1)C(=O)OC (stereo partly specified)  OVCAR-4 ovarian       inactive
 4  CCOC(=O)c1cc2c(cc1Cl)SC(=Nc1ccccc1)N(S(=O)(=O)c1ccc(Cl)cc1)S2(=O)=O  OVCAR-4 ovarian       inactive
 5  COc1cc(OC)cc(-c2n/c(=C\c3c(O)[nH]c4ccc(OC)cc34)cc3c2=Nc2ccccc2-3)c1  OVCAR-4 ovarian       inactive
 6  COc1cc(/C=N/Nc2ncnc3c2cnn3-c2ccccc2)ccc1O  OVCAR-4 ovarian       inactive
 7  Nc1nc([Se])c2ncn(C3OC(CO)C(O)C3O)c2n1 (stereo unspecified)  OVCAR-4 ovarian       inactive
 8  Cc1ccc(/C=N/Nc2nc(Nc3ccccc3)nc(-n3nc(C)cc3C)n2)cc1  OVCAR-4 ovarian       inactive
 9  COc1ncc(Nc2ncc([C@@H](C)N3CCN(S(C)(=O)=O)CC3)cc2-c2nc(C)nc(N)n2)cc1F  OVCAR-4 ovarian       inactive
10  CC1C(C)N(C(=O)CCl)c2ccccc2N1C(=O)CCl (stereo unspecified)  OVCAR-4 ovarian       inactive
11  CC1(C)CNc2cc(NC(=O)c3cccnc3NCc3ccncc3)ccc21  OVCAR-4 ovarian       inactive
12  CC(N)(Cc1c[nH]c2cccc(F)c12)C(=O)O (stereo unspecified)  OVCAR-4 ovarian       inactive
13  COC(=O)c1ccc(CN2C(=O)C(Cl)=C(Nc3cccc(Cl)c3C)C2=O)cc1  OVCAR-4 ovarian       inactive
14   COc1ccc2c(c1)[nH]c(=O)c1c3cccc(F)c3cn21  OVCAR-4 ovarian         active
15       COc1cc(Nc2ncc(-c3ccccc3)o2)cc(OC)c1  OVCAR-4 ovarian       inactive
16  COc1ccc(/C(COc2ccc3oc(-c4ccccc4)cc(=O)c3c2)=N\O)cc1  OVCAR-4 ovarian       inactive

###

System: NCI-H226 lung
Experiment: NCI tumour cell line growth inhibition, 48 h
Overview of recorded GI50 for various molecules
readout: GI50

> print(dat)
                                   molecule  assayresult
1  COc1cccc(CC(C)=C(c2ccc(OCCN3CCCCC3)cc2)c2ccc(OCCN3CCCCC3)cc2)c1      2.33 µM
2  O=C(N/N=C\c1ccc(N(CCCl)CCCl)cc1[N+](=O)[O-])c1cccnc1     > 100 µM
3  O=C(Nc1ccccc1)Nc1ccc2cc3ccc(NC(=O)Nc4ccccc4)cc3nc2c1      1.71 µM
4  CC1=C2[C@@H](CC1)[C@]1(C)O[C@@](C(C)C)(C[C@H]1OC(=O)CO)[C@H]2OC(=O)C1CC1c1ccccc1 (stereo not given in full)      16.2 µM
5  Cc1ccc(/C=N/Nc2nc(Nc3ccccc3)nc(-n3nc(C)cc3C)n2)cc1      4.88 µM

###

Test system: PC-3 prostate
Test: NCI tumour cell line growth inhibition, 48 h
Form field: GI50 (one value per entry).
readout: GI50

> print(dat)
                                    compound  readout  assayresult
 1  CC1=C2[C@@H](CC1)[C@]1(C)O[C@@](C(C)C)(C[C@H]1OC(=O)CO)[C@H]2OC(=O)C1CC1c1ccccc1 (stereo not given in full)     GI50      7.36 µM
 2  NC(=O)c1cc([N+](=O)[O-])c(Cl)c([N+](=O)[O-])c1Cl     GI50      1.58 µM
 3  CCc1ccc(CCC(=O)Nc2ncc(Cc3ccc(Cl)cc3)s2)o1     GI50     0.403 µM
 4  CC(N)(Cc1c[nH]c2cccc(F)c12)C(=O)O (stereo not given)     GI50    > 1000 µM
 5  COc1cccc(CC(C)=C(c2ccc(OCCN3CCCCC3)cc2)c2ccc(OCCN3CCCCC3)cc2)c1     GI50      1.83 µM
 6  CC1=C(c2ccccc2)C(O)(c2ccccc2)C(C)C1=O (stereo not given)     GI50      22.8 µM
 7  CNC(=O)c1c(NC(=O)c2ccc(C(C)(C)C)cc2)sc2c1CCC(=O)C2     GI50    0.0797 µM
 8  O=C(Nc1cccc(O)c1)c1ccc(NC2=C(Cl)C(=O)N(Cc3ccc(Cl)cc3Cl)C2=O)cc1     GI50      1.75 µM
 9       COc1cc(Nc2ncc(-c3ccccc3)o2)cc(OC)c1     GI50      > 25 µM
10  COc1cc(/C=N/Nc2ncnc3c2cnn3-c2ccccc2)ccc1O     GI50      5.24 µM

###

System: NCI-H522 lung
Assay: NCI tumour cell line growth inhibition, 48 h
readout: TGI

> print(dat)
                                    molecule  readout  assayresult
 1  COc1ccc(CN2c3ccccc3Sc3ccccc32)c(C(F)(F)F)c1      TGI      2.84 µM
 2   CCOC(=O)/C(=C/c1ccc(C(=O)OC)cc1)N(CC)CC      TGI     > 100 µM
 3     NC1=NS(=O)(=O)Nc2nc(-c3ccccc3)[nH]c21      TGI     > 100 µM
 4  CC(C)(C)C1CCC2c3c([nH]c4ccccc34)C3C(=O)N(c4ccc(Cl)cc4)C(=O)C3C2C1 (stereo not drawn)      TGI     > 100 µM
 5  O=C(CCCN1CCC(O)(c2ccc(Cl)cc2)CC1)c1ccc(F)cc1      TGI      39.5 µM
 6  CCOC(=O)C(Cc1ccc(OC(=O)OC(C)(C)C)cc1)NC(=O)OC(C)(C)C (stereo not drawn)      TGI     > 100 µM
 7                        NNC(=S)NCCNC(=S)NN      TGI     > 100 µM
 8  Clc1cccc(NN=Nc2ccc(-c3nc4ccccc4s3)cc2)c1      TGI      66.2 µM
 9  O=C(N=c1ccc2nc(=O)[nH]n(O)c-2c1)C(F)(F)F      TGI     > 100 µM
10                 CN(C)C(=N/O)/C(=N\O)N(C)C      TGI     > 100 µM
11  O=C(Nc1cccc([N+](=O)[O-])c1)c1n[nH]n(-c2cccc([N+](=O)[O-])c2)c1=O      TGI     > 100 µM
12               O=S(=O)(NNc1ccccc1)c1ccccc1      TGI      31.1 µM
13  C[N+](C)(C)CC(=O)N/N=C(/C(=O)Nc1ccc(Br)cc1)C1C(=O)NC(=O)NC1=O      TGI     > 100 µM
14  C=CCN(CCNS(=O)(=O)c1ccc(C)cc1)S(=O)(=O)c1ccc(C)cc1      TGI     > 100 µM
15  COc1ccc2c(c1)nc(C(=O)c1ccco1)c(C(F)(F)F)[n+]2[O-]      TGI     > 100 µM
16              COC(=O)c1c(C#N)c(N)nc2c1CCC2      TGI     > 100 µM
17       C=C(C)COC1CCCCO1 (stereo not drawn)      TGI     > 100 µM
18       O=C(O)c1ccc(C2=Cc3cc(Cl)ccc3OC2)cc1      TGI     > 100 µM
19  c1ccc(C2OC3(CCC[C@H]4C[C@H]43)O[C@H]2c2ccccc2)cc1 (stereo partly drawn)      TGI      67.1 µM
20  O=C(/C=C/c1cccc(Oc2ccccc2)c1)NCc1ccc(C(=O)NCCc2ccccc2)cc1      TGI     > 100 µM
21      O=C(c1ccccc1)C1S(=O)(=O)OCCOS1(=O)=O      TGI     > 100 µM
22  COC(=O)c1ccc(C)cc1CC1Cc2ccc(C)cc2C1=O (stereo not drawn)      TGI      5.48 µM
23  C=C1CC(Cn2ccc(=O)[nH]c2=O)(c2ccc(Cl)cc2)OC1=O (stereo not drawn)      TGI      2.26 µM
